// reported IC50 for each item listed
# Tested on: HCC461 cells
# measurement-notes: Cell viability assay in HCC461 cells (WST-1)
# Format: cell-based
# settings: HCC461, 48 h, 48 hrs incubation; Table 1 experiment
measured-endpoint: IC50 (µM)

• CN[C@@H](C)C(=O)N[C@H](C(=O)N1C[C@@H](NC(=O)[C@H](O)[C@@H](O)C(=O)N[C@H]2C[C@@H](C(=O)N[C@@H]3CCCc4ccccc43)N(C(=O)[C@@H](NC(=O)[C@H](C)NC)C(C)(C)C)C2)C[C@H]1C(=O)N[C@@H]1CCCc2ccccc21)C(C)(C)C = 0.101
• CN[C@@H](C)C(=O)N[C@H](C(=O)N1C[C@@H](NS(=O)(=O)c2cccc(S(=O)(=O)N[C@H]3C[C@@H](C(=O)N[C@@H]4CCCc5ccccc54)N(C(=O)[C@@H](NC(=O)[C@H](C)NC)C(C)(C)C)C3)c2)C[C@H]1C(=O)N[C@@H]1CCCc2ccccc21)C(C)(C)C.Cl.Cl = 0.026
• CN[C@@H](C)C(=O)NC(C(=O)C1C[C@@H](NC(=O)C2CCCC2C(=O)N[C@H]2CC(C(=O)N[C@@H]3CCCc4ccccc43)N(C(=O)[C@@H](NC(=O)[C@H](C)NC)C(C)(C)C)C2)CC1C(=O)N[C@@H]1CCCc2ccccc21)C(C)(C)C.Cl.Cl (single isomer, unassigned) = 0.019
